Target: BCR-KIT BaF3 cells (Homo sapiens)
Construct: fused on or other part: P11274 (Breakpoint cluster region protein)
Sequence (P10721 589-937): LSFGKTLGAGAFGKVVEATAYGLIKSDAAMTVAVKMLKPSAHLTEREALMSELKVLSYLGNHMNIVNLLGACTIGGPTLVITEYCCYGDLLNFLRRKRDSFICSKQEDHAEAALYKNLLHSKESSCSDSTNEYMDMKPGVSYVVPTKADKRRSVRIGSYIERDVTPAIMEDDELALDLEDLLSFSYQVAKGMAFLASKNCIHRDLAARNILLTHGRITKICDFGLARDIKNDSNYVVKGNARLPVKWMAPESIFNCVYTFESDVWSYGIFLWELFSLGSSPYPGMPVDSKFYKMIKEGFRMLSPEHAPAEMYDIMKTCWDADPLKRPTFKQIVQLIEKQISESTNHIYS
Test: BaF3 BCR-KIT cell proliferation assay (ATPlite)
Details: read-out: Inhibition of Cell Proliferation IC50, BCR/BaF3 Kit
pIC50: −log10 of the molar value.
Property name: pIC50

Which pIC50 value is on record for Cc1cnc2[nH]cc(Cc3cnc(Nc4ccc(S(C)(=O)=O)cc4)nc3)c2c1 ?
> 7.00

Which pIC50 value is on record for COc1ccc(Nc2ncc(Cc3c[nH]c4ncc(C)cc34)cn2)cn1 ?
> 7.00

Which pIC50 value is on record for COc1ccc(Nc2ncc(Cc3c[nH]c4ncc(C)cc34)cn2)cc1F ?
> 7.00

Which pIC50 value is on record for Nc1ncnc2[nH]cc(C(=O)c3ccc(NC4CCC(F)(F)CC4)nc3Cl)c12 ?
> 6.00

Which pIC50 value is on record for CCn1cc(Nc2ccc(Cc3c[nH]c4ncnc(OCCOC)c34)c(F)n2)cn1 ?
< 6.00

Which pIC50 value is on record for CCNc1ncnc2[nH]cc(C(=O)c3ccc(Nc4ccc(C5CC5)nc4)nc3F)c12 ?
> 7.00

Which pIC50 value is on record for Cc1cnc2[nH]cc(Cc3cnc(Nc4cc(C5CC5)n[nH]4)nc3)c2c1 ?
> 6.00

====

pIC50: −log10 of the molar value.
# pIC50 measurements, system: c-Kit kinase (Homo sapiens)
# Sequence (P10721 26-976): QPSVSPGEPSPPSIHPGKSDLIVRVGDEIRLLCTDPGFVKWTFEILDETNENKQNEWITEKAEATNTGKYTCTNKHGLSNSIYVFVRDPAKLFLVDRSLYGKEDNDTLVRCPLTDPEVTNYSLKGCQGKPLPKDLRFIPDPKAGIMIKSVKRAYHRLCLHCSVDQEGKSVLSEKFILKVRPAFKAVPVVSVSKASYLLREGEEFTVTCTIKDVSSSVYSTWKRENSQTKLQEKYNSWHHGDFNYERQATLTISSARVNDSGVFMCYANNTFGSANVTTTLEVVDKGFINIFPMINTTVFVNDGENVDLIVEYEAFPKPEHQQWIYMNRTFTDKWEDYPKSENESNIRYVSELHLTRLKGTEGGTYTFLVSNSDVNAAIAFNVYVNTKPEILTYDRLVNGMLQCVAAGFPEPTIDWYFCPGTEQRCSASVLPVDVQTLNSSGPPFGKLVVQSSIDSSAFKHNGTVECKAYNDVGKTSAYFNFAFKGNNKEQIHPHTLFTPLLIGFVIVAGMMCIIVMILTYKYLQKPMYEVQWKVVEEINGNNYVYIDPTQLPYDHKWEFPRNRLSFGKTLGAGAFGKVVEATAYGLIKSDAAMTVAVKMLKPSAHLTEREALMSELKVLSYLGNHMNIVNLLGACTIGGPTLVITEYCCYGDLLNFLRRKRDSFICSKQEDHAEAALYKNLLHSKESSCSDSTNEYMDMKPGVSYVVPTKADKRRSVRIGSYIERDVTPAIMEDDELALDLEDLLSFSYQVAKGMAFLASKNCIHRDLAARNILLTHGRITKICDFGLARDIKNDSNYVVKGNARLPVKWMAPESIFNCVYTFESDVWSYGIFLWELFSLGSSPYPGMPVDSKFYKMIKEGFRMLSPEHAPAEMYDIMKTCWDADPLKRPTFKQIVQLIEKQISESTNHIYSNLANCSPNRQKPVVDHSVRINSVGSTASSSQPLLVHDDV

Query pIC50 on c-Kit kinase (Homo sapiens) for COc1ccc(Nc2ccc(Cc3c[nH]c4ncnc(OC)c34)c(F)n2)cn1
> 6.00

Query pIC50 on c-Kit kinase (Homo sapiens) for CCn1cc(Nc2ccc(Cc3c[nH]c4ncnc(OCCOC)c34)c(F)n2)cn1
> 7.00

Query pIC50 on c-Kit kinase (Homo sapiens) for COc1ccc(Nc2ccc(C(=O)c3c[nH]c4ncnc(N5CCCCC5)c34)c(F)n2)cn1
< 6.00

Query pIC50 on c-Kit kinase (Homo sapiens) for O=C(c1ccc(Nc2ccc(C3CC3)nc2)nc1F)c1c[nH]c2ncnc(NCC(F)(F)F)c12
> 6.00

Query pIC50 on c-Kit kinase (Homo sapiens) for CCOc1ncnc2[nH]cc(Cc3ccc(Nc4cnn(CC)c4)nc3F)c12
> 6.00

Query pIC50 on c-Kit kinase (Homo sapiens) for Cc1ccc(Nc2ccc(C(=O)c3c[nH]c4ncc(Cl)cc34)c(F)n2)cn1
> 6.00

Query pIC50 on c-Kit kinase (Homo sapiens) for COc1ccc(Nc2ccc(C(=O)c3c[nH]c4ncnc(NC(C)C)c34)c(F)n2)cn1
> 7.00

Query pIC50 on c-Kit kinase (Homo sapiens) for CCc1ccc(Nc2ccc(C(=O)c3c[nH]c4ncnc(NC5CC5)c34)c(F)n2)cn1
> 7.00

Query pIC50 on c-Kit kinase (Homo sapiens) for Cc1cnc2[nH]cc(Cc3cnc(Nc4cc(C(F)(F)F)n[nH]4)nc3)c2c1
> 6.00

Query pIC50 on c-Kit kinase (Homo sapiens) for CNc1ncnc2[nH]cc(C(=O)c3ccc(Nc4ccc(C)nc4)nc3F)c12
> 7.00

====

Biological target: UniProt P07333
Sequence (P07333 20-972): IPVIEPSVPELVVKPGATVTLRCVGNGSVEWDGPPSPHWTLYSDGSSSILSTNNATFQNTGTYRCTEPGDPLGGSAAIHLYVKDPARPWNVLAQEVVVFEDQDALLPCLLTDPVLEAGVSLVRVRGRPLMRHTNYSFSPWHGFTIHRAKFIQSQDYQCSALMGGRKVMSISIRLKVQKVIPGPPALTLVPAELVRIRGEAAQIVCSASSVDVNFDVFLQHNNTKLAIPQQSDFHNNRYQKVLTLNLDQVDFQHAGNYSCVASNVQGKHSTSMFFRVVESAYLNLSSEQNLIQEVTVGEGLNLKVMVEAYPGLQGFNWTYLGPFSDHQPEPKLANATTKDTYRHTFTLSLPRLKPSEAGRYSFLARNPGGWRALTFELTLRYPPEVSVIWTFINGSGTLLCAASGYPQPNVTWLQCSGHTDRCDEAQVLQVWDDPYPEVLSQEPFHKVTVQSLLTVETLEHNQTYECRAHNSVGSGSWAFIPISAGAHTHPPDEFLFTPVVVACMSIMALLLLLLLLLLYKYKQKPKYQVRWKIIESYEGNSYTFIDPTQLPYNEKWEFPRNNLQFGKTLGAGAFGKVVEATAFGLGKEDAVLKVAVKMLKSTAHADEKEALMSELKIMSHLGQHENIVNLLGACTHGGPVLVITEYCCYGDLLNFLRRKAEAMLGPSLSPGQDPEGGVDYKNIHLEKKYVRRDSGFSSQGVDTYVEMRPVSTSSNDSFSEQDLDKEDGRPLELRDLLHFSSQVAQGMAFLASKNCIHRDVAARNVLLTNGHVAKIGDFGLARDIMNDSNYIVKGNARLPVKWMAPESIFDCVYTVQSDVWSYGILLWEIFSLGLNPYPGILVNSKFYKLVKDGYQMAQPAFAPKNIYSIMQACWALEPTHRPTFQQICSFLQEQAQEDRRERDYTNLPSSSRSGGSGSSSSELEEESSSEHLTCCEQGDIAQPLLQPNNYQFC
pIC50: −log10 of the molar value.
Property name: pIC50

Which pIC50 value is on record for O=C(c1ccc(Nc2ccc(C3CC3)nc2)nc1F)c1c[nH]c2ncnc(NCC(F)(F)F)c12 ?
> 7.00

Which pIC50 value is on record for CCOc1ncnc2[nH]cc(Cc3ccc(Nc4ccc(Br)nc4)nc3F)c12 ?
> 8.00

Which pIC50 value is on record for O=C(c1ccc(NC2CCC(F)(F)CC2)nc1F)c1c[nH]c2ncnc(NC3CC3)c12 ?
> 8.00

Which pIC50 value is on record for CCCNc1ncnc2[nH]cc(C(=O)c3ccc(Nc4ccc(C)nc4)nc3F)c12 ?
> 8.00

Which pIC50 value is on record for Cc1cnc2[nH]cc(C(=O)c3ccc(Nc4ccc(C)nc4)nc3F)c2c1 ?
> 8.00

Which pIC50 value is on record for CNc1ncnc2[nH]cc(C(=O)c3ccc(Nc4ccc(OC)nc4)nc3OC)c12 ?
> 8.00

Which pIC50 value is on record for CCc1ccc(Nc2ccc(Cc3c[nH]c4ncnc(C5CC5)c34)c(F)n2)cn1 ?
> 8.00

Which pIC50 value is on record for O=C(c1ccc(NC2CCC(F)(F)CC2)nc1F)c1c[nH]c2ncnc(NCC(F)(F)F)c12 ?
> 7.00

Which pIC50 value is on record for COc1ccc(Nc2ccc(C(=O)c3c[nH]c4ncnc(NCC5CC5)c34)c(F)n2)cn1 ?
> 8.00

Which pIC50 value is on record for COc1ccc(Nc2ccc(C(=O)c3c[nH]c4ncnc(NC(C)(C)C)c34)c(F)n2)cn1 ?
> 7.00

Which pIC50 value is on record for O=C(c1ccc(Nc2ccc(C3CC3)nc2)nc1F)c1c[nH]c2ncnc(NC3CC3)c12 ?
> 8.00

Which pIC50 value is on record for Cc1ccc(Nc2ccc(C(=O)c3c[nH]c4ncnc(C5CC5)c34)c(F)n2)cn1 ?
> 7.00
